tested on: lung cancer cell line NCI-H82; experiment: Cell proliferation assay, NCI-H82 (CELL-TITER GLO); assay type: cell-based; settings: Homo sapiens, NCI-H82, 72 h, NCI-H82 cells, 72 h incubation, cell viability by CELL-TITER GLO, top concentration 1 μM; read-out: EC50, Inhibition of NCl-H82 Cell Proliferation
pEC50: −log10 of the molar value.
Assay metric: pEC50

Using the record for C#Cc1nc(NC(=O)N[C@@H](C(=O)NC)c2ccc(-c3cccc(C4(C#N)CC4)c3)cc2)cs1 , report its pEC50.
≥ 6.70

Query C#Cc1nc(NC(=O)N[C@@H](CO)c2ccc(N3CCCC3=O)cc2)cs1 next
≥ 6.70

// same read-out, input: C#Cc1nc(N(C)C(=O)N(C)[C@@H](CO)c2ccc(-c3cccc4ncsc34)cc2)cs1
6.00 to 6.70

Entry C#Cc1nc(NC(=O)NCc2ccc(-c3cccc4ncsc34)cc2C#N)cs1 please
6.00 to 6.70

###

Provide the recorded EC50 for the entries that follow.
system: hepatocellular carcinoma cell line Hub-7; test: Cell proliferation assay, Hub-7 (CELL-TITER GLO); assay type: cell-based; conditions: Hub-7 cells, 24 h incubation, cell viability by CELL-TITER GLO, top concentration 10 μM; read-out: EC50, Inhibition of Hub-7 Cell Proliferation

Using the record for C#Cc1nc(NC(=O)NCc2ccc(-c3c(C(=O)NC)ccc4ncsc34)cc2)cs1 [Compound A17] , report its EC50.
1 to 5 µM

Can you handle C#Cc1nc(C(=O)NCCc2ccc(S(C)(=O)=O)cc2)cs1 [Compound C101] next?
> 5 µM

Query C#Cc1nc(NC(=O)[C@H](N)Cc2ccccc2C#N)cs1 [Compound E5] next
≤ 0.2 µM

Would you kindly repeat that for C#Cc1ncc(C(=O)NCc2ccccc2)s1 [Compound C141, N-Benzyl-2-ethynylthiazole-5-carboxamide] ?
1 to 5 µM

Next up: C#Cc1nc(C(=O)NCCc2ccc(-c3c(C(N)=O)ccc4ncsc34)cc2)cs1 [Compound C3]
0.2 to 1 µM

Input C#Cc1nc(C(=O)NCCc2ccc(-c3cccc(C(=O)NC)c3)cc2)cs1 [Compound C4]
≤ 0.2 µM

Try C#Cc1nc(NC(=O)NCc2ccc(-c3cc(C(=O)OC)cc4c3cnn4C)cc2)cs1 [Compound A22] next.
≤ 0.2 µM

// repeat for C#Cc1nc(NC(=O)NCc2ccc(-c3c(C(N)=O)ccc4ncsc34)cc2)cs1 [Compound A19] and report
0.2 to 1 µM

###

tested on: hepatocellular carcinoma cell line Hub-7; test: Cell proliferation assay, Hub-7 (CELL-TITER GLO); format: cell-based; details: Hub-7 cells, 24 h incubation, cell viability by CELL-TITER GLO, top concentration 10 μM; read-out: EC50, Inhibition of Hub-7 Cell Proliferation
Assay metric: EC50

Endpoint output: EC50 of C#Cc1nc(NC(=O)NCc2ccc(-c3cccc4c3S(=O)(=O)C=C4)cc2)cs1 [Compound A1] . Value?
200 to 1000 nM

Next entry: C#Cc1nc(C(=O)NCc2cccc(Cl)c2)cs1 [Compound C125]
≤ 200 nM

Moving on to the next molecule: C#Cc1nc(NC(=O)NCc2ccc(-c3cccc(C(=O)NC)c3)cc2)cs1 [Compound A14]
200 to 1000 nM

And the next one, C#Cc1nc(C(=O)NCc2cccc3ccccc23)cs1 [Compound C113] ?
≤ 200 nM

Here is the next molecule: C#Cc1nc(C(=O)N[C@H]2CCc3ccccc32)cs1 [Compound C71]
200 to 1000 nM

Try C#Cc1nc(NC(=O)NCc2ccc(-c3cccc4ncsc34)cc2)cs1 [Compound A6] next.
≤ 200 nM

Another molecule: C#Cc1nc(C(=O)NCCc2ccc(NS(C)(=O)=O)cc2)cs1 [Compound C99]
1000 to 5000 nM

How about C#Cc1nc(C(=O)NCc2ccccc2)cn1C [Compound C98] ?
> 5000 nM

Next: C#Cc1nc(C(=O)NCCc2ccc(C#N)cc2)cs1 [Compound C102]
200 to 1000 nM

Then C#Cc1nc(C(=O)NCCc2ccc(-c3cccc4nn(C)cc34)cc2)cs1 [Compound C32] ?
200 to 1000 nM

Another: C#Cc1nc(C(=O)NCCc2ccc(-c3cccc4[nH]ncc34)cc2)cs1 [Compound C49]
≤ 200 nM

Also need C#Cc1ncc(C(=O)N2CCN(c3ccc(-c4cccc5ncsc45)cc3)CC2)s1 [Compound D7] , thanks.
≤ 200 nM

Lookup C#Cc1nc(C(=O)N2CCC(O)CC2)cs1 [Compound D31]
> 5000 nM

Lookup C#Cc1nc(NC(=O)CCc2ccc(-c3cccc4c3cnn4C)cc2)cs1 [Compound E4]
≤ 200 nM

Next entry: C#Cc1nc(NC(=O)NCc2ccc(-c3cc4ncsc4cc3F)cc2)cs1 [Compound A12]
200 to 1000 nM

Continue with C#Cc1nc(C(=O)N[C@@H](C)c2cccc(Cl)c2)cs1 [Compound C69]
≤ 200 nM

Same read-out for C#Cc1nc(C(=O)N2CCCC(O)C2)cs1 (stereo not shown) [Compound D34] ?
> 5000 nM

And for C#Cc1nc(C(=O)NCCc2ccc(-c3cccc4c3C(=O)C(=O)N4)cc2)cs1 [Compound C14] ?
200 to 1000 nM

Same question, C#Cc1nc(C(=O)NCc2ccc(NC(C)=O)cc2)cs1 [Compound C89] this time
> 5000 nM

###

For each entry below, report its EC50 value.
system: hepatocellular carcinoma cell line Hub-7; assay: Cell proliferation assay, Hub-7 (CELL-TITER GLO); assay type: cell-based; conditions: Hub-7 cells, 24 h incubation, cell viability by CELL-TITER GLO, top concentration 10 μM; read-out: EC50, Inhibition of Hub-7 Cell Proliferation

Entry C#Cc1nc(NC(=O)NCc2ccc(-c3c(C)ccc4c3cnn4C)cc2)cs1 has what EC50?
≤ 200 nM

Likewise for C#Cc1nc(C(=O)NCc2ccccc2C#N)cs1 ?
≤ 200 nM

Request: C#Cc1nc(C(=O)NCCc2ccc(-c3cccc4ncccc34)cc2)cs1
200 to 1000 nM

Also need C#Cc1nc(C(=O)N2CCC(c3ccc(-c4cccc5nn(C)cc45)cc3)CC2)cs1 , thanks.
≤ 200 nM

Same read-out for C#Cc1nc(NC(=O)N2CCc3cc(-c4cccc5ncsc45)ccc3C2)cs1 ?
200 to 1000 nM

Quick one: C#Cc1nc(C(=O)NCc2ccc(-c3cncs3)cc2)cs1
200 to 1000 nM

Query C#Cc1nc(C(=O)NCc2cccc(N)c2)cs1 next
1000 to 5000 nM

And for C#Cc1nc(C(=O)N2CCN(c3ccc([N+](=O)[O-])cc3)CC2)cs1 ?
≤ 200 nM

Now consider C#Cc1nc(C(=O)NCCc2ccc(-c3cccc4c3CN(C)C4=O)cc2)cs1 .
200 to 1000 nM

###

tested on: hepatocellular carcinoma cell line Hub-7; assay: Cell proliferation assay, Hub-7 (CELL-TITER GLO); format: cell-based; settings: Hub-7 cells, 24 h incubation, cell viability by CELL-TITER GLO, top concentration 10 μM; read-out: EC50, Inhibition of Hub-7 Cell Proliferation
pEC50: −log10 of the molar value.
Record form. Attribute: pEC50. Fill in for each entry.

Sample C#Cc1ncc(C(=O)NCc2ccccc2)n1C — what was its pEC50?
< 5.30

One more compound: C#Cc1nc(C(=O)NCc2ccc(-c3cccc4[nH]ncc34)cc2)cs1
5.30 to 6.00

Same again, this time with C#Cc1nc(C(=O)NCCc2ccc(-c3cn[nH]c3)cc2)cs1
5.30 to 6.00

And then C#Cc1nc(C(=O)NCc2cccc(CC(=O)OC)c2)cs1 , what is it?
6.00 to 6.70

# repeat for C#Cc1nc(NC(=O)NCc2ccc(-c3cccc4c3S(=O)(=O)CC4=O)cc2)cs1
5.30 to 6.00

###

system: lung cancer cell line NCI-H82; experiment: Cell proliferation assay, NCI-H82 (CELL-TITER GLO); type: cell-based; details: NCI-H82 cells, 72 h incubation, cell viability by CELL-TITER GLO, top concentration 1 μM; read-out: EC50, Inhibition of NCl-H82 Cell Proliferation
Assay metric: EC50

Recorded EC50 of C#Cc1nc(NC(=O)NCc2ccc(-c3cccc4ncsc34)cc2C#N)cs1 [Compound A178] , please.
≤ 200 nM

###

Can you tell me pEC50 for the items I'm about to list?
tested on: hepatocellular carcinoma cell line Hub-7; assay: Cell proliferation assay, Hub-7 (CELL-TITER GLO); type: cell-based; conditions: Hub-7 cells, 24 h incubation, cell viability by CELL-TITER GLO, top concentration 10 μM; read-out: EC50, Inhibition of Hub-7 Cell Proliferation
pEC50: −log10 of the molar value.

Give the measured pEC50 of C#Cc1nc(C(=O)NCCc2ccc(-c3cc(C(=O)OC)cc4ncsc34)cc2)cs1 .
≥ 6.70

Also need C#Cc1nc(C(=O)NCc2ccccc2OC)cs1 , thanks.
5.30 to 6.00

Please answer likewise for C#Cc1nc(C(=O)N2CCC(c3ccc(-c4cccc5ncsc45)cc3)CC2)cs1
≥ 6.70

Item: C#Cc1nc(NC(=O)NCc2ccc(-c3cccc4ncn(C)c(=O)c34)cc2)cs1
6.00 to 6.70

Entry C#Cc1nc(C(=O)NCCc2ccc(-c3cc(C(=O)NC)cc4ncsc34)cc2)cs1 please
6.00 to 6.70
